The measured values listed here are drawn from patent US11174268B2.

measured_on: UniProt Q14524
test_name: Sodium Influx Assay (Flux), NaV1.5
run_conditions: read-out: Flux NaV1.5 IC50; Trex HEK293 cells, ANG2 dye, inactivated state
Structures can show the parent of a compound that is named as a salt.
Mark Fulfilled for IC50 under 9 µM, Not fulfilled if at or over.

Some solved entries appear below for comparison.
{"compound": "CN(C)Cc1cccc(F)c1CNc1cc(F)c(S(=O)(=O)Nc2cscn2)cc1Cl [Example 249, 2,2,2-trifluoroacetate]", "qualitative_label": "Not fulfilled"}
{"compound": "CN(Cc1cccc(F)c1CNc1ccc(S(=O)(=O)Nc2cscn2)c(F)c1F)C(C)(C)C [Example 203, 2,2,2-trifluoroacetate]", "qualitative_label": "Not fulfilled"}

Exercise: Please indicate whether the reported IC50 of C=Cc1cc(S(=O)(=O)Nc2cscn2)c(F)cc1NCc1ccccc1CN1CCC1 [Example 323, formate] is strictly below 9 µM.
Solution: Not fulfilled

Exercise: Lab log: compare recorded IC50 with 9 µM; is it strictly lower for Cc1cc(S(=O)(=O)Nc2cccc(F)n2)c(F)cc1NCc1ccccc1CN1CCC1 [Example 329] ?
Solution: Not fulfilled

Exercise: Below 9 µM on IC50? Entry CCC[C@H](Nc1cc(F)c(S(=O)(=O)Nc2nccs2)cc1Cl)c1ccccc1 [Example 111]
Solution: Fulfilled

Exercise: Hello, is IC50 of the following compound strictly smaller than 9 µM? O=S(=O)(Nc1cscn1)c1c(F)cc(NC2(c3ccccc3)CC2)cc1F [Example 231]
Solution: Not fulfilled

Exercise: Below 9 µM on IC50? Entry CN(Cc1cccc(F)c1CNc1cc(F)c(S(=O)(=O)Nc2ccsn2)c(F)c1)C(C)(C)C [Example 189, formate]
Solution: Not fulfilled

---

Parameter: pIC50. Scope: all listed entries.
measured_on: UniProt:Q14524
test_name: Sodium Influx Assay (Flux), NaV1.5
run_conditions: read-out: Flux NaV1.5 IC50; Trex HEK293 cells, ANG2 dye, inactivated state
Remember the convention: pIC50 equals -log10 of concentration in molar.

{"compound": "COCc1ccc(F)c([C@H](C)Nc2cc(F)c(S(=O)(=O)Nc3cscn3)cc2Cl)c1", "pIC50": 4.62}
{"compound": "C[C@H](Nc1cc(F)c(S(=O)(=O)Nc2ccncn2)c(F)c1)c1cc(Cl)ccc1F [Example 206, 2,2,2-trifluoroacetate]", "pIC50": 4.52}
{"compound": "O=S(=O)(Nc1cscn1)c1cc(Cl)c(NCc2ccccc2CN2CCC2)cc1F [Example 19, 2,2,2-trifluoroacetate]", "pIC50": 4.73}

Lookup result for O=S(=O)(Nc1nccs1)c1cc(Cl)c(NC2(c3cccc(F)c3)CCC2)cc1F ; measured pIC50: 4.99

---

Recorded IC50 values for a group of molecules are listed next.
measured_on: NaV1.5 (Homo sapiens (Human), UniProt Q14524)
Sequence (Q14524 other isoform, or with tags, fused parts or gaps): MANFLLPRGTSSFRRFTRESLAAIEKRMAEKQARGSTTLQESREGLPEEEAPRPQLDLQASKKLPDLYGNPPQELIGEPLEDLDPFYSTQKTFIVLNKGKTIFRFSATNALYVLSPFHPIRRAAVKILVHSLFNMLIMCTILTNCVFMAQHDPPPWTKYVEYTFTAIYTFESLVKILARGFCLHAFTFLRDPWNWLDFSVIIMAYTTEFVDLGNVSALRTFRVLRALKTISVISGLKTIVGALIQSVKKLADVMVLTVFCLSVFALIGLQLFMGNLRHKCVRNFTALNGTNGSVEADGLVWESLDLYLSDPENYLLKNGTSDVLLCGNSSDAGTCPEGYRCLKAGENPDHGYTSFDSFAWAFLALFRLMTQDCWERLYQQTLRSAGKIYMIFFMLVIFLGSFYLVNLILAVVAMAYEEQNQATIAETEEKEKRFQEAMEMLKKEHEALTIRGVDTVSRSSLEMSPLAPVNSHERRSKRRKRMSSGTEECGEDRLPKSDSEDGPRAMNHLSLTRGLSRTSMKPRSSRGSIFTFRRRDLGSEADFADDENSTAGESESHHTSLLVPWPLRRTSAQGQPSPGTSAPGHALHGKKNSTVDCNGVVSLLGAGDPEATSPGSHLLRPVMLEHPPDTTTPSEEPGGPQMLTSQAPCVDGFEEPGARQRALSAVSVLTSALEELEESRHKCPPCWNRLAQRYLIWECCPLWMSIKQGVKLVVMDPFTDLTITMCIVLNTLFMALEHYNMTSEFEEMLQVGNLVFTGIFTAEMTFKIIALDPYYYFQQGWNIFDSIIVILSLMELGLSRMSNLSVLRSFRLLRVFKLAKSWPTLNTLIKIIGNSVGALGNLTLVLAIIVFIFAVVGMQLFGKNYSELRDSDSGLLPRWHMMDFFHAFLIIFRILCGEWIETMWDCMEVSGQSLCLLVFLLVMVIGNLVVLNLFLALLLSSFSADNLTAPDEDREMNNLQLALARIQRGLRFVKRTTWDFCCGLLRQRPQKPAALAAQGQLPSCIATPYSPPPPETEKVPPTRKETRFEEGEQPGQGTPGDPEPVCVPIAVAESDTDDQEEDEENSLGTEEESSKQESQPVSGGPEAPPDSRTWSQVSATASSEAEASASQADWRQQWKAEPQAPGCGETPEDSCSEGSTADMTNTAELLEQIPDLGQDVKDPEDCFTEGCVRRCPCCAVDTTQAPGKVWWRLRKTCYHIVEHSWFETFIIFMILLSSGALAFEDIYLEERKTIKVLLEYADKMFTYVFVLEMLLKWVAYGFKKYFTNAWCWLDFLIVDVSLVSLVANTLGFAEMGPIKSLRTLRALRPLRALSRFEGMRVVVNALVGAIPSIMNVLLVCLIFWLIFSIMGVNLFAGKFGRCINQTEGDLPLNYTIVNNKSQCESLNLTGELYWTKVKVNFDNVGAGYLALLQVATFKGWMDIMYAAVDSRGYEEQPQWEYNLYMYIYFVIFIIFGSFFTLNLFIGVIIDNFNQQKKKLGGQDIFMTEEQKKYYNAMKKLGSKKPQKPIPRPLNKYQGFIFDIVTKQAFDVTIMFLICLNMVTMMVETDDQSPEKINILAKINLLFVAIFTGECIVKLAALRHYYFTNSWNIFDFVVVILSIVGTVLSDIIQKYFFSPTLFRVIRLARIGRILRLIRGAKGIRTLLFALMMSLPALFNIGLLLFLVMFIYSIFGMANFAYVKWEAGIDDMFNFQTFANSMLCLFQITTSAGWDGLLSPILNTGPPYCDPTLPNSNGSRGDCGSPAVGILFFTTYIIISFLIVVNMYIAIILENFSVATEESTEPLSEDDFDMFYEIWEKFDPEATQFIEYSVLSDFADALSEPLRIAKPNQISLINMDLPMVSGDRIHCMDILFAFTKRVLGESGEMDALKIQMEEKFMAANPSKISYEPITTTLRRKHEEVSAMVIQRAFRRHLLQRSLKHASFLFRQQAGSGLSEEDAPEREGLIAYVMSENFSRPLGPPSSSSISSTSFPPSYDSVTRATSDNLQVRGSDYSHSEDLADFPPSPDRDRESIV
test_name: Sodium Influx Assay (Flux), NaV1.5
run_conditions: read-out: Flux NaV1.5 IC50; Trex HEK293 cells, ANG2 dye, inactivated state
Where a name gives a salt, the structure may show the parent alone.
Your answer is read as µM, so omit the unit and give the number.

{"molecule": "O=S(=O)(Nc1cscn1)c1cc(Cl)c(NCc2c(Cl)cccc2CN2CC3(CNC3)C2)cc1F [Example 291, 2,2,2-trifluoroacetate]", "IC50 [µM]": 30}
{"molecule": "COC1(C)CN(Cc2cccc(F)c2CNc2cc(F)c(S(=O)(=O)Nc3cscn3)c(F)c2)C1 [Example 172, formate]", "IC50 [µM]": 30}
{"molecule": "C[C@H](Oc1cc(F)c(S(=O)(=O)Nc2cscn2)cc1Cl)c1ccccc1Cl", "IC50 [µM]": 2.15}
{"molecule": "O=S(=O)(Nc1cscn1)c1c(F)cc(NCc2ccccc2CCN2CC(F)(F)C2)cc1F", "IC50 [µM]": 20}
{"molecule": "O=S(=O)(Nc1ccncn1)c1cc(Cl)c(NC2(c3ccccc3F)CC2)cc1F", "IC50 [µM]": 30}
{"molecule": "O=S(=O)(Nc1cscn1)c1cc(Cl)c(NCc2c(F)ccc(F)c2CN2CC3(CCOCC3)C2)cc1F [Example 282, 2,2,2-trifluoroacetate]", "IC50 [µM]": 6.58}

Alright, here's another molecule for you.
According to the records, this molecule O=S(=O)(Nc1nccs1)c1cc(Cl)c(NC2CCCc3cnccc32)cc1F (stereo not shown) [Example 94, 2,2,2-trifluoroacetate] displays IC50 of 8.62
